src = ChEMBL document CHEMBL3988442

- Tested System: Tryptophan--tRNA ligase (Mycobacterium tuberculosis (strain ATCC 25618 / H37Rv), UniProt P9WFT3)
- Measurement Notes: Biochemical assay for Mt-TrpRS
Measured Metric: IC50

compound=COc1ccc(CNC(=O)C2(C#N)CCCC2)cc1 result="> 195 µM"
compound="O=C(c1ccc[nH]1)N1CCN(CC2CCOc3ccccc3C2)CC1 (stereo unspecified)" result="> 195 µM"
compound=CS(=O)(=O)c1nccn1CCOc1ccccc1F result="> 195 µM"
compound="CCOCc1cnc2n1CCN(C(=O)c1ccccc1)C2C (stereo unspecified)" result="> 195 µM"
compound=CNC(=O)c1cc2ccccc2n1C result="> 195 µM"

Req: Param item = CC(C)n1c2ccccc2c2c1cc(C(=O)N(C)C)n2S(C)(=O)=O ; retrieve measured IC50.
Resp: > 195 µM

---

- Test system: Leishmania donovani
- Measurement Notes: Leishmania intramacrophage assay
- Type: functional, organism-based
Measured Metric: pIC50
Would you mind answering with just the numeric figure?

Worked examples follow.
compound="N#CC1CCCN(c2nc(-c3ccccc3)nc3c2CCNCC3)C1 (stereo unspecified)" numeric_value=4.667
compound=CN(C)CCN(C)C(=O)Cn1cccc2cc(-c3ccc(F)cc3)nc1-2 numeric_value=4.872
compound=Cc1ccc(Oc2cc(F)ccc2O[C@@H]2CCC[C@@H](N)[C@H]2O)cc1 numeric_value=4.961
compound="Cc1nc(C2(O)CCCNCC2)sc1CCOc1ccc(F)c(F)c1.Cl (stereo unspecified)" numeric_value=4.936
compound="Cc1ccc(CNC(CN2CCN(C)CC2)c2ccccc2)cc1 (stereo unspecified)" numeric_value=5.055

Moving on to the next compound.
Req: // lookup pIC50 | system=Leishmania donovani | key= COc1ccc(-c2nc(CN3CCCC(OC)C3)c(C)o2)c(F)c1 (stereo unspecified)
Resp: 4.638

---

- Measurement Notes: microbe, parasite or virus in culture
- Condition Details: Mycobacterium tuberculosis, 72 h, read-out: pIC50 (converted)
Threshold 200 µM: IC50 strictly smaller gives 1 (yes), otherwise 0 (no).

Solved entries (count: 3):
compound=CC(=O)c1ccccc1NC(=O)CN1CC[C@H](N)C1 label_value="1 (yes)"
compound=COCCNc1nnc(SCc2ccc(Br)cn2)s1 label_value="0 (no)"
compound="CC1CCN(C(=O)C(C)Oc2ccc3c(c2)OCO3)CC1 (stereo not drawn)" label_value="1 (yes)"

Req: Record COc1ncccc1CNS(=O)(=O)c1cccc(Cl)c1 : is its IC50 strictly below 200 µM?
Resp: 0 (no)

Req: Again, but for O=c1oc(-c2ccc(F)cc2)nn1CC1CCCCO1 (stereo not drawn)
Resp: 1 (yes)

Req: Next record, please: CC(Nc1ccc(Br)cc1)c1nc(C2CC2)no1 (stereo not drawn)
Resp: 1 (yes)

Req: Ok, now CCN(CC)CCS(=O)(=O)c1ccccc1
Resp: 0 (no)

Req: Check COc1ccc(CNc2nc(C3CC3)nc3c(C)nn(C)c23)cc1 too.
Resp: 1 (yes)

Req: What would you report for OC1(CNc2nc(-c3ccccc3)ns2)CCSC1 (stereo not drawn) ?
Resp: 0 (no)

Req: Same again, this time with COc1cccc(OC2CNC2)c1
Resp: 0 (no)

---

- Test system: Wolbachia pipientis
- Measurement Notes: Anti-Wolbachia Cell-Based Screen
- Format: functional
Below: a set of entries, each annotated with reported pIC50.
A bare number is all that is needed in reply.

# annotated cases, reported pIC50 shown
compound=Cc1ncc(CN(C)Cn2nc(-c3ccccc3)oc2=O)s1 measured_metric=pIC50 numeric_value=5.124
compound="Cc1nn(C)c(C)c1C1CCCN1Cc1nc2ccccc2o1 (stereo unspecified)" measured_metric=pIC50 numeric_value=5.128
compound="Cc1nn(C)c2nc(N3CCCCC3c3cccnc3)sc12 (stereo unspecified)" measured_metric=pIC50 numeric_value=6.07
compound="Cn1c(=O)n(C)c2cc(C3SCC(=O)Nc4ccsc43)ccc21 (stereo unspecified)" measured_metric=pIC50 numeric_value=5.481
compound=O=C(CNC(=O)c1ccc(Cl)cc1)Nc1nccs1 measured_metric=pIC50 numeric_value=5.243

Req: # lookup: pIC50 of Cc1cccc(N2CCN(C(=O)c3c(C)nn(C)c3C)CC2)c1C
Resp: 5.626

Req: Please do the same for Cc1c[nH]c(CN2CCOC(c3ccc(Cl)cc3)C2)c(C)c1=O (stereo unspecified) as well.
Resp: 5.539

Req: Moving on to Cc1ccc(C(=O)N2CCC3(CC2)CN(CCN(C)C)C(=O)O3)c(F)c1
Resp: 5.079

Req: Thanks! And Fc1ccc(CN2CCCC(c3cc4ncccc4[nH]3)C2)cc1 (stereo unspecified) ?
Resp: 5.047

Req: Would you kindly repeat that for Cc1csc(CN(C)c2cc(C)nc3c(C)c(C)nn23)n1 ?
Resp: 5.234

Req: Do the same for O=C(O)C(F)(F)F.O=C(O)C(F)(F)F.c1cncc(-c2ccc3c(c2)CCC32CCN(Cc3ccco3)CC2)c1 please
Resp: 6.473
